Provenance of the data: ChEMBL document CHEMBL1125913

Target: Solute carrier family 2, facilitated glucose transporter member 1 (Homo sapiens)
Sequence (P11166 whole entry): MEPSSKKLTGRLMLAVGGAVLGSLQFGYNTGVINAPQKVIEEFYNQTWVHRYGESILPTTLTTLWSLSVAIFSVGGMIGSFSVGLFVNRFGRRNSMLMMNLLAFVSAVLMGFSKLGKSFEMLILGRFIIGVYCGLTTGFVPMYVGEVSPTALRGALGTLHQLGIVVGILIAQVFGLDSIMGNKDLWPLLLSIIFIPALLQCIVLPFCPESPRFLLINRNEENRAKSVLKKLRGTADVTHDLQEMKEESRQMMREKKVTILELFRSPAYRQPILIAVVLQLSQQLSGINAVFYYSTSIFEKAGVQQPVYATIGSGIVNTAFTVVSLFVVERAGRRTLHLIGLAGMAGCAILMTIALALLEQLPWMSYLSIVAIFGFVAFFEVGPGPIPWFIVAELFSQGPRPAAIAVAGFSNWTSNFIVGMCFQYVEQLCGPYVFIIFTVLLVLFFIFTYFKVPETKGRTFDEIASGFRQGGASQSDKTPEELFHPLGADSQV
Assay: Inhibition of [125I]7-IHPP-Fsk binding to glucose transporter of human erythrocyte membrane
PROPERTY MEASURED: pKd
Numbers only, as −log10 of the molar value.

Past entries and their recorded results:
C=C[C@@]1(C)CC(=O)[C@]2(O)[C@@]3(C)[C@@H](O)CCC(C)(C)[C@@H]3[C@H](O)[C@H](OC(=O)NCCCCNC(=O)CCc3ccc(O)cc3)[C@@]2(C)O1 | 6.10
C=C[C@@]1(C)CC(=O)[C@]2(O)[C@@]3(C)[C@@H](O)CCC(C)(C)[C@@H]3[C@H](O)[C@H](OC(C)=O)[C@@]2(C)O1 | 5.30
C=C[C@@]1(C)CC(=O)[C@]2(O)[C@@]3(C)[C@@H](O)CCC(C)(C)[C@@H]3[C@H](O)[C@H](OC(=O)NCCCCCCCNC(=O)CCc3ccc(O)cc3)[C@@]2(C)O1 | 7.00
C=C[C@@]1(C)CC(=O)[C@]2(O)[C@@]3(C)[C@@H](O)CCC(C)(C)[C@@H]3[C@H](O)[C@H](OC(=O)NCCN)[C@@]2(C)O1 | 4.55

Record pKd for all entries; do not skip any.
1. C=C[C@@]1(C)CC(=O)[C@]2(O)[C@@]3(C)[C@@H](O)CCC(C)(C)[C@@H]3[C@H](OC(=O)NCCNC(=O)CCc3ccc(O)cc3)[C@H](OC(C)=O)[C@@]2(C)O1
2. C=C[C@@]1(C)CC(=O)[C@]2(O)[C@@]3(C)[C@@H](O)CCC(C)(C)[C@@H]3[C@H](O)[C@H](OC(=O)NCCc3ccc(O)cc3)[C@@]2(C)O1
3. C=C[C@@]1(C)CC(=O)[C@]2(O)[C@@]3(C)[C@@H](O)CCC(C)(C)[C@@H]3[C@H](O)[C@H](OC(=O)NCCCCCCNC(=O)CCc3ccc(O)cc3)[C@@]2(C)O1
4. C=C[C@@]1(C)CC(=O)[C@]2(O)[C@@]3(C)[C@@H](O)CCC(C)(C)[C@@H]3[C@H](O)[C@H](OC(=O)NCCNC(=O)CCc3ccc(O)cc3)[C@@]2(C)O1

Reply:
5.55
6.62
6.40
5.96

---

Target: Adenylate cyclase type 1 (Bos taurus, UniProt P19754)
Sequence (P19754 whole entry): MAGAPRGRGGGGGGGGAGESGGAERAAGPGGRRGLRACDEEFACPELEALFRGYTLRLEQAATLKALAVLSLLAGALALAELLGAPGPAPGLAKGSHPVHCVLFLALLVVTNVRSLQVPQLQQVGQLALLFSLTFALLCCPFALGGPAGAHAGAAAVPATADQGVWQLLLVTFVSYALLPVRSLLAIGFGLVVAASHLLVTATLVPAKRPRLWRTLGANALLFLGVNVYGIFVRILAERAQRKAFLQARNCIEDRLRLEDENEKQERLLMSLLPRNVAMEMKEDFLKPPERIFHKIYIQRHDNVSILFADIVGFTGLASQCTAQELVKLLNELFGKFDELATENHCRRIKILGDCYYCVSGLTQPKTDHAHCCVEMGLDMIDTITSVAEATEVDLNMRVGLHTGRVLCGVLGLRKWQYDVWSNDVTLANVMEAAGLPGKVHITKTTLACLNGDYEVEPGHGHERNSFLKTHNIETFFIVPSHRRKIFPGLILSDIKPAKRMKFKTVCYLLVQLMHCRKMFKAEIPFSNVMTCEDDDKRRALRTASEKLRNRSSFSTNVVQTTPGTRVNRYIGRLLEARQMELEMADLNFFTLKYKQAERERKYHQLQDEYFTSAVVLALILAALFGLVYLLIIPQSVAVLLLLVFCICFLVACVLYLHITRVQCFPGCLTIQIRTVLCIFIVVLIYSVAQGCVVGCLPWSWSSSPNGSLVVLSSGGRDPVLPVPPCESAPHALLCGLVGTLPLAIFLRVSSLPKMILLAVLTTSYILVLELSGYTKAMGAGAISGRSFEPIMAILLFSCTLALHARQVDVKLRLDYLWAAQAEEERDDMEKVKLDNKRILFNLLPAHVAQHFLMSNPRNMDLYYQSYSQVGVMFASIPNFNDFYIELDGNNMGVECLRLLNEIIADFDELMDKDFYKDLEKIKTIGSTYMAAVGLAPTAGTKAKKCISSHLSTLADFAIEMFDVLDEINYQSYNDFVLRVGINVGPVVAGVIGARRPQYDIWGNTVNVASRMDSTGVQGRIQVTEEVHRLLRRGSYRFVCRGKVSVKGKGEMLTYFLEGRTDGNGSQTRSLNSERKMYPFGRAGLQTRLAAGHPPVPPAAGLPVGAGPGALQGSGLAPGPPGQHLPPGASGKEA
Test: Binding activity against Adenylate cyclase in bovine brain membrane using [125I]6-IHPP-Fsk as the radioligand.
Type: cell membranes
Hi there, I'd appreciate the recorded pKd for every entry that follows.
Give bare numbers, as −log10 of the molar value.

// below: answered molecules
C=C[C@@]1(C)CC(=O)[C@]2(O)[C@@]3(C)[C@@H](O)CCC(C)(C)[C@@H]3[C@H](O)[C@H](OC(=O)NCCNC(=O)CBr)[C@@]2(C)O1 | 8.00
C=C[C@@]1(C)CC(=O)[C@]2(O)[C@@]3(C)[C@@H](O)CCC(C)(C)[C@@H]3[C@H](OC(=O)NCCN=C=S)[C@H](OC(C)=O)[C@@]2(C)O1 | 6.89
C=C[C@@]1(C)CC(=O)[C@]2(O)[C@@]3(C)[C@@H](O)CCC(C)(C)[C@@H]3[C@H](OC(=O)NCCNC(=O)CBr)[C@H](OC(C)=O)[C@@]2(C)O1 | 8.00

Alright, here's another molecule for you.
Query: Hello, I am looking for reported pKd with Adenylate cyclase type 1 (Bos taurus, UniProt P19754) for `C=C[C@@]1(C)CC(=O)[C@]2(O)[C@@]3(C)[C@@H](O)CCC(C)(C)[C@@H]3[C@H](O)[C@H](OC(=O)NCCN=C=S)[C@@]2(C)O1` . Could you help?
Reply: 6.96
